# assaySystem: NEDD8 activating enzyme (Homo sapiens)
# Sequence (Q8TBC4 whole entry): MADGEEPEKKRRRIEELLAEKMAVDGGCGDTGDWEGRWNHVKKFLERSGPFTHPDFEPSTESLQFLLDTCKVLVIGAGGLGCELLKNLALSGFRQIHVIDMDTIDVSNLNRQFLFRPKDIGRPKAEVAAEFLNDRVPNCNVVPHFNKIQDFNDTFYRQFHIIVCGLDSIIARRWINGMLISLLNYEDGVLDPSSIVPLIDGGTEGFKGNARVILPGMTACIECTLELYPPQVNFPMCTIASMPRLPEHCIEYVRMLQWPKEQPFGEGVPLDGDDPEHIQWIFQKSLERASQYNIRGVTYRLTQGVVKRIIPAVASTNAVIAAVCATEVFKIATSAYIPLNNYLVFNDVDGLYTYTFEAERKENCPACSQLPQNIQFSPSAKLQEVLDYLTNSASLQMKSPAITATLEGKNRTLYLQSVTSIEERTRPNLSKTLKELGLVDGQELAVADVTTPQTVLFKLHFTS
# Sequence (Q13564 whole entry): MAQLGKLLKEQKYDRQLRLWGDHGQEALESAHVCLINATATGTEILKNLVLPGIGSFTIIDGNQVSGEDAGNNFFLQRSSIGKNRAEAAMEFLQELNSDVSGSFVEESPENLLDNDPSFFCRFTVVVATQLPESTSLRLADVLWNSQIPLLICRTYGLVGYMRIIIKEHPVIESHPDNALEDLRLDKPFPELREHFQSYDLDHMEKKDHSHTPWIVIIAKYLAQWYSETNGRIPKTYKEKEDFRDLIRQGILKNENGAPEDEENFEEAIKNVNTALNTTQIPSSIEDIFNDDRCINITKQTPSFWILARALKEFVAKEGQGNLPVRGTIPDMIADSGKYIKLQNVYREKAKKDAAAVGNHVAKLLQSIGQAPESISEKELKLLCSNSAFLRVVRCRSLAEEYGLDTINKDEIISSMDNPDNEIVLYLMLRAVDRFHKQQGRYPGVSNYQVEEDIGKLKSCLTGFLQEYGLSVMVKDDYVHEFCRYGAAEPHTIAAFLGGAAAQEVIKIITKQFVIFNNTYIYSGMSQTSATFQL
# methodSummary: Inhibition of NAE-mediated Ubcl2-NEDD8 conjugation in human Caco2 cells after 16 hrs by Western blot analysis

- compound: "O=C1c2c(O)ccc(O)c2C(=O)c2c(NCCNCCO)ccc(NCCNCCO)c21 [MITOXANTRONE]"
  valueUnits: "nM"
  EC50: 1300

* * *

Attribute: pIC50
# Tested on: Caco-2
# methodSummary: Cytotoxicity against human Caco2 cells after 72 hrs by MTT assay
# Assay type: functional, cell-based
# assayConditions: Caco-2, 72 h
pIC50: −log10 of the molar value.
quantityMeasured: pIC50

- compound: "O=C1c2c(O)ccc(O)c2C(=O)c2c(NCCNCCO)ccc(NCCNCCO)c21 [MITOXANTRONE]"
  quantityMeasured: "pIC50"
  reading: 5.85
- compound: "NS(=O)(=O)OC[C@@H]1C[C@@H](n2ccc3c(N[C@H]4CCc5ccccc54)ncnc32)C[C@@H]1O [PEVONEDISTAT]"
  quantityMeasured: "pIC50"
  reading: 5.36

Taken from ChEMBL document CHEMBL4138244.
